system: CDC2L2; details: concentration: 1 μM, replicates: in singlicate; n = 1;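 also: KINOMEscan kinase panel screen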
Assay readout: %Inh (%)

| Compound | Experimental value |
| --- | --- |
| COc1ccc(Nc2nccc(N3CCC(NC(=O)Nc4cccc(OC)c4)C3)n2)cc1 (stereo not drawn) [GSK1379742] | 0 |
| COC(=O)Nc1nc2ccc(Oc3ccc(NC(=O)Nc4cc(C(F)(F)F)ccc4F)cc3)cc2n1C.Cl [GW692089] | 10 |
| C[C@@H](Oc1cc(-n2cnc3cc(-c4ccnc(NCCS(C)(=O)=O)c4)ccc32)sc1C(N)=O)c1ccccc1Cl [GSK907232] | 5 |
| NCCCC(NC(=O)c1cc(Br)c(-c2ccnc3[nH]ccc23)s1)c1ccccc1.O=C(O)C(F)(F)F.O=C(O)C(F)(F)F (stereo not drawn) [GSK1287544] | 0 |
| CN1CCN(CCCNc2nccc(-c3c(-c4ccc(F)cc4)nn4cc(C(F)(F)F)ccc34)n2)CC1 [GW621581] | 0 |
| CC(C)c1nc(-c2cccc(NS(=O)(=O)c3c(F)cccc3F)c2F)c(-c2ccnc(Nc3ccc(N4CCOCC4)nc3)n2)s1 [GSK2008607] | 47 |
| COc1cc(Nc2nccc(-c3c(-c4cccc(NC(=O)c5c(F)cccc5F)c4)nn4ccccc34)n2)cc(OC)c1OC [GSK323521] | 14 |
| COc1cc(Nc2ncc3c(C)nc(-c4cc5ccccc5[nH]4)n3n2)cc(OC)c1OC [GW869516] | 8 |
| O=C(Nc1cccc(-c2nn3ncccc3c2-c2ccnc(Nc3ccccc3)n2)c1)c1c(F)cccc1F [GSK198271] | 18 |
| Cl.Cl.NCC(NC(=O)c1cc(-c2ccccc2)c(-c2ccnc3[nH]ccc23)s1)c1ccccc1 (stereo not drawn) [GSK1321561] | 11 |
| FC(F)(F)c1ccc(/C=C/c2cncnc2Nc2ccc3[nH]c(Cc4ccccc4)nc3c2)cc1 [GW709199] | 0 |
| CCn1c(-c2nonc2N)nc2c(C#CC(C)(C)O)nc(OC[C@H](N)c3ccccc3)cc21 [GSK943949] | 0 |
| Cc1ccc(C)c(NC(=O)NC2CCN(c3ccnc(Nc4ccc(F)cc4)n3)C2)c1 (stereo not drawn) [GSK1379720] | 0 |
| COc1ccc(Nc2nccc(NCCNC(=O)c3cc4ccccc4s3)n2)cc1 [GSK1379896] | 1 |
| CN(C)S(=O)(=O)c1cc(-c2ccc3nccc(-c4cccc(S(N)(=O)=O)c4)c3c2)cnc1N [GSK1669921] | 3 |
| CC(=O)N1CCN(c2ccc(Nc3nccc(-c4sc(C(C)C)nc4-c4cccc(NS(=O)(=O)c5cccc(Cl)c5)c4)n3)cn2)CC1 [GSK1660437] | 0 |
| O=C(Nc1ccccc1F)NC1CCN(c2ccnc(Nc3ccc(F)cc3)n2)CC1 [GSK1379800] | 34 |
| COc1cc2c(cc1OCCN1CCNCC1)ncc1c3ccc(C#N)cc3[nH]c21 | 0 |
| C[C@@H]1CC[C@@H](C(=O)Nc2ccccc2)CN1c1cc(-c2ccc3c(N)n[nH]c3c2)nc(N)n1 [GSK2286062] | 20 |
| O=C(Nc1cccc(-c2nn3ccccc3c2-c2ccnc(Nc3cccc(C(F)(F)F)c3)n2)c1)c1c(F)cccc1F [GSK292658] | 0 |
| Fc1ccc(-c2ncn(C3CCNCC3)c2-c2ccnc(Oc3ccc(-c4ccccc4)cc3)n2)cc1 [SB-245391] | 9 |
| Nc1ncnc2c1nc(-c1ccccc1)n2-c1ccccc1 [SKF-97293] | 5 |
| Nc1ncc(-c2ccc3nccc(-c4ccncc4)c3c2)cc1S(=O)(=O)N1CCOCC1 [GSK1627798] | 0 |
| COc1cccc(NC(=O)NC2CCN(c3ccnc(Nc4cc(OC)c(OC)c(OC)c4)n3)C2)c1 (stereo not drawn) [GSK1379763] | 10 |
| CCCCc1nn2ncccc2c1-c1ccnc(Nc2ccc(N3CCN(C)CC3)cc2)n1 [GW684941] | 7 |
| Cc1ccc(F)c(C(=O)Nc2cccc(-c3nn4ccccc4c3-c3ccnc(Nc4cccc(F)c4)n3)c2)c1F [GSK361061] | 23 |
| c1ccc(-c2cnc3nccnn23)cc1 [AH20685] | 18 |
| CCn1c(-c2nonc2N)nc2c(C#CC(C)(C)O)ncc(OCCCCN)c21.O=C(O)C(F)(F)F.O=C(O)C(F)(F)F [GSK507274] | 0 |
| CCc1ccc(-c2ccc3c(c2)-c2c(cnn2C)S(=O)(=O)N3C)cc1 | 0 |
| COc1cccc(C2=C(Nc3ccc(Cl)c(C(=O)O)c3)C(=O)NC2=O)c1 [SB-390769] | 0 |
| Oc1cc(Nc2ccnc3cc(I)ccc23)ccc1F [GW552771] | 0 |
| CC(C)(C)c1ccc2nccc(Nc3cccc(O)c3)c2c1 [GW856795] | 0 |
| CCS(=O)(=O)c1ccc(OC)c(Nc2nccc(-c3c(-c4cccc(NC(=O)c5c(F)cccc5F)c4)nn4ncccc34)n2)c1 [GSK326180] | 15 |

---

tested on: PIKFYVE; details: concentration: 1 μM, replicates: in singlicate; n = 1
Measured %Inh accompanies every entry in the list below.

| Molecule | Reading unit | %Inh |
| --- | --- | --- |
| COc1ccc(CNC(=O)NC2CCN(c3ccnc(Nc4ccc(F)cc4)n3)CC2)cc1 [GSK1379788] | % | 6 |
| O=C(Nc1cccc(-c2nn3ccccc3c2-c2ccnc(Nc3cccc(C(F)(F)F)c3)n2)c1)c1c(F)cccc1F [GSK292658] | % | 1 |
| COc1ccc(Nc2nccc(N3CCC(NC(=O)Nc4cccc(OC)c4)C3)n2)cc1 (stereo not shown) [GSK1379742] | % | 0 |
| c1ccc(Oc2ccc(Nc3ccnc4cc(-c5ccc(CNCCN6CCOCC6)o5)ccc34)cc2)nc1 [GW567145] | % | 50 |

---

system: SRC; details: concentration: 1 μM, replicates: in singlicate; n = 1

| Molecule | Measured on | %Inh (%) |
| --- | --- | --- |
| O=C(Nc1cccc(-c2nn3ccccc3c2-c2ccnc(Nc3cccc(F)c3)n2)c1)c1c(F)ccc(F)c1Cl | SRC | 45 |
| COCCOCCOc1cc2ncc3c4ccc(C#N)cc4[nH]c3c2cc1OC | SRC | 14 |
| Nc1ncc(-c2cccnc2)c2scc(-c3ccc4c(c3)CCN4C(=O)Cc3ccccc3)c12 | SRC | 37 |
| NCCCC(NC(=O)c1cc(Br)c(-c2ccnc3[nH]ccc23)s1)c1ccccc1.O=C(O)C(F)(F)F.O=C(O)C(F)(F)F (stereo not shown) | SRC | 0 |
| O=C(Nc1n[nH]c2nc(-c3ccc(O)cc3)ccc12)C1CC1 | SRC | 0 |
| Cc1occc1-c1ncc(OC[C@@H](N)Cc2c[nH]c3ccccc23)cc1-c1ccc2[nH]nc(C)c2c1.O=C(O)C(F)(F)F | SRC | 65 |
| C[C@@H]1CC[C@@H](C(=O)Nc2ccccc2)CN1c1cc(-c2ccc3c(N)n[nH]c3c2)nc(N)n1 | SRC | 0 |

---

The following molecules are listed with their measured %Inh values.
tested on: MRCKB; construct: gene CDC42BPB; settings: concentration: 1 μM, replicates: in singlicate; n = 1
Assay readout: %Inh (%)

| Mol smiles | Measured on | Experimental value |
| --- | --- | --- |
| O=C(Nc1cccc(Oc2ccc3nc(NC(=O)C4CC4)cn3n2)c1)c1ccccc1C(F)(F)F | MRCKB | 0 |
| Cn1cc(-c2ccc3c(c2)CCN3C(=O)Cc2cccc(Cl)c2)c2c(N)ncnc21 | MRCKB | 0 |
| Fc1ccc(-c2ncn(C3CCNCC3)c2-c2ccnc(Oc3ccc(-c4ccccc4)cc3)n2)cc1 | MRCKB | 59 |
| O=C(Nc1cccc(-c2nn3ccccc3c2-c2ccnc(Nc3cccc(C(F)(F)F)c3)n2)c1)c1c(F)cccc1F | MRCKB | 4 |
| COc1ccc(-c2coc3ccc(-c4nnc(SCc5ccc(OC)c(C(F)(F)F)c5)o4)cc23)cc1 | MRCKB | 0 |
| Cl.c1ccc(-c2ccc3c(Nc4ccc5[nH]ccc5c4)ccnc3c2)nc1 | MRCKB | 0 |
| FC(F)(F)c1ccc(/C=C/c2cncnc2Nc2ccc3[nH]c(Cc4ccccc4)nc3c2)cc1 | MRCKB | 26 |
| Cn1cc(-c2[nH]c3cc(NC(=O)[C@H](N)C4CCCCC4)cc4c3c2C=NNC4=O)cn1 | MRCKB | 0 |
| Cc1occc1-c1ncc(OC[C@@H](N)Cc2c[nH]c3ccccc23)cc1-c1ccc2[nH]nc(C)c2c1.O=C(O)C(F)(F)F | MRCKB | 72 |
| Clc1ccc(-c2nn3ncccc3c2-c2ccnc(Nc3ccc4c(c3)OCCO4)n2)cc1 | MRCKB | 0 |

---

test system: CAMK1G; conditions: concentration: 1 μM, replicates: in singlicate; n = 1
Reported %Inh values for the following compounds.

| Compound | Reading unit | %Inh |
| --- | --- | --- |
| Nc1ncc(-c2ccc3nccc(-c4ccncc4)c3c2)cc1S(=O)(=O)N1CCOCC1 | % | 16 |
| Cc1ccc(F)c(C(=O)Nc2cccc(-c3nn4ccccc4c3-c3ccnc(Nc4cccc(F)c4)n3)c2)c1F | % | 12 |
| Cc1ccc(C)c(NC(=O)NC2CCN(c3ccnc(Nc4ccc(F)cc4)n3)C2)c1 (centres unmarked) | % | 11 |
| COc1cccc(C(=O)Nc2cccc(Oc3ccc4nc(NC(=O)C5CC5)cn4n3)c2)c1 | % | 21 |
| Cl.Cl.NCC(NCc1ccc(-c2ccnc3[nH]ccc23)s1)c1ccccc1 (centres unmarked) | % | 11 |
| COc1ccc(-c2coc3ccc(-c4nnc(SCc5ccc(OC)c(C(F)(F)F)c5)o4)cc23)cc1 | % | 3 |
| CN(C)S(=O)(=O)c1cc(-c2ccc3nccc(-c4cccc(S(N)(=O)=O)c4)c3c2)cnc1N | % | 7 |
| CCc1ccc(-c2ccc3c(c2)-c2c(cnn2C)S(=O)(=O)N3C)cc1 | % | 5 |
| Nc1ncnc2c1nc(-c1ccccc1)n2-c1ccccc1 | % | 0 |
| COc1cc(Nc2ncc3c(C)nc(-c4cc5ccccc5[nH]4)n3n2)cc(OC)c1OC | % | 0 |
| Cc1ccc(C(=O)Nc2ccc(Nc3ccnc4cc(-c5nccs5)ccc34)cc2O)cc1.Cl | % | 15 |
| c1ccc(-c2cnc3nccnn23)cc1 | % | 0 |
| c1ccc(Oc2ccc(Nc3ccnc4cc(-c5ccc(CNCCN6CCOCC6)o5)ccc34)cc2)nc1 | % | 0 |
| Nc1n[nH]c2cnc(-c3ccccc3)cc12 | % | 10 |
| COCCOCCOc1cc2ncc3c4ccc(C#N)cc4[nH]c3c2cc1OC | % | 1 |
| COc1ccc(Nc2nccc(NCCNC(=O)c3cc4ccccc4s3)n2)cc1 | % | 0 |
| O=C(Nc1ccccc1F)NC1CCN(c2ccnc(Nc3ccc(F)cc3)n2)CC1 | % | 0 |
| FC(F)(F)c1ccc(/C=C/c2cncnc2Nc2ccc3[nH]c(Cc4ccccc4)nc3c2)cc1 | % | 0 |
| Cl.Cl.NCC(C(=O)Nc1cc(Br)c(-c2ccnc3[nH]ccc23)s1)c1ccccc1 (centres unmarked) | % | 0 |
| CC(C)c1nc(-c2cccc(NS(=O)(=O)c3c(F)cccc3F)c2F)c(-c2ccnc(Nc3ccc(N4CCOCC4)nc3)n2)s1 | % | 42 |
| Cl.c1ccc(-c2ccc3c(Nc4ccc5[nH]ncc5c4)ccnc3c2)nc1 | % | 5 |
| Cl.c1ccc(-c2ccc3c(Nc4ccc5[nH]ccc5c4)ccnc3c2)nc1 | % | 0 |
| O=C(Nc1cccc(-c2nn3ccccc3c2-c2ccnc(Nc3cccc(C(F)(F)F)c3)n2)c1)c1c(F)cccc1F | % | 0 |
| Oc1cc(Nc2ccnc3cc(I)ccc23)ccc1F | % | 0 |
| CSc1cccc2c(-c3ccncn3)c(-c3ccc(F)cc3)nn12 | % | 0 |
| C[C@@H]1CC[C@@H](C(=O)Nc2ccccc2)CN1c1cc(-c2ccc3c(N)n[nH]c3c2)nc(N)n1 | % | 6 |
| COc1cccc(-c2ccc3c(NC(=O)C4CC4)n[nH]c3n2)c1 | % | 0 |
| CCCCc1nn2ncccc2c1-c1ccnc(Nc2ccc(N3CCN(C)CC3)cc2)n1 | % | 0 |
| CNC(=O)c1ccccc1Nc1nc(Nc2ccc(N3CCOCC3)cc2)ncc1Cl.Cl | % | 30 |
| COc1cc(Nc2nccc(N3CCC(NC(=O)Nc4cccc(C(C)=O)c4)C3)n2)cc(OC)c1OC (centres unmarked) | % | 0 |
| Cn1cc(-c2ccc3c(c2)CCN3C(=O)Cc2cccc(Cl)c2)c2c(N)ncnc21 | % | 25 |
| CCn1c(-c2nonc2N)nc2c(C#CC(C)(C)O)ncc(OCCCCN)c21.O=C(O)C(F)(F)F.O=C(O)C(F)(F)F | % | 7 |
| O=C(NC1CCN(c2ccnc(Nc3ccc(F)cc3)n2)C1)c1cc2ccccc2s1 (centres unmarked) | % | 0 |
| O=c1[nH]cc(-c2ccc(N3CCOCC3)cc2)c2sc(-c3cn[nH]c3)cc12 | % | 12 |
| O=C(Nc1n[nH]c2cc(-c3ccoc3)ccc12)C1CC1 | % | 0 |
